tested on: SN12C; experiment: NCI tumour cell line growth inhibition, 48 h
Calls of active or inactive are those of the source. No stated cut-off is given here; in the data, active = GI50 up to about 1.1 µM and inactive = higher.
Listing of entries alongside the reported GI50.
reported endpoint: GI50

>>> readout_value("O=C(c1ccc(Cl)cc1Cl)N(Cc1cccnc1)C(=S)N(Cc1cccnc1)C(=O)c1ccc(Cl)cc1Cl")
"4.68 µM (inactive)"
>>> readout_value("COC(OC)C1(c2ccccc2)Oc2ccccc2C1=O (stereo not drawn)")
"> 100 µM (inactive)"
>>> readout_value("Cc1cccc2c(=O)c([Se]c3coc4c(C)cccc4c3=O)coc12")
"18.5 µM (inactive)"

###

test system: NCI-H226; assay: NCI tumour cell line growth inhibition, 48 h
Activity calls are given as the source filed them. No stated cut-off is given here; in the data, active = GI50 up to about 1.1 µM and inactive = higher.
Outcome codes: yes for active, no for inactive

>>> label("CC1=CC[C@@]2(C)CC[C@](O)(C(C)C)C2C(OC(=O)c2ccccc2)C1 (stereo partly drawn)")
"no"
>>> label("NCCSc1nc2ccccc2s1")
"no"
>>> label("COc1ccc(NC(C)=O)c(C(=O)CCNC(C)=O)c1")
"no"
>>> label("CCCCCCCCCCC/C(=N/O)c1ccc(O)c2ncccc12")
"no"
>>> label("CCNC(=S)N/N=C1\\C(=O)Nc2ccc([N+](=O)[O-])cc21")
"no"
>>> label("O=C1NCC2(CCNCC2)N1c1ccccc1")
"no"
>>> label("C/C(=N\\NS(=O)(=O)c1ccc(C)cc1)P(=O)(O)O")
"no"
>>> label("CCOC(=O)c1cnc(-n2[nH]c(C)c(CCO)c2=O)[nH]c1=O")
"no"
>>> label("N#Cc1nc(CCCN2C(=O)c3ccccc3C2=O)oc1N")
"no"
>>> label("O=C1Oc2ccccc2C(=O)/C1=C/NC(=S)NCCc1ccccc1")
"no"
>>> label("Cc1cc(Cl)cc2c1NC(=O)C2(O)C(C)C(=O)c1ccc(Cl)cc1 (stereo not drawn)")
"no"
>>> label("CCCCNC(=O)C1C2CCC(O2)C1C(=O)O (stereo not drawn)")
"no"
>>> label("CC[C@@]1(O)C[C@H](OC2CC(N(C)C)C(OC3CC(O)C(OC4CCC(=O)C(C)O4)C(C)O3)C(C)O2)c2c(cc3c(c2O)C(=O)c2c(O)ccc(O)c2C3=O)[C@H]1C(=O)OC (stereo partly drawn)")
"yes"
>>> label("COc1ccc(-c2nc(-c3cc4c(ccc5ccccc54)oc3=O)cs2)cc1")
"no"
>>> label("CC1(c2cccc(Cl)c2)CC(c2cccc(Cl)c2)=C(C#N)C(=C(C#N)C#N)N1 (stereo not drawn)")
"no"
>>> label("COn1cc(CO)c2ccccc21")
"no"
>>> label("N/C(=N\\Nc1nc2cc([N+](=O)[O-])ccc2o1)c1ccccn1")
"yes"
>>> label("O=C1NCC2(CCNCC2)N1")
"no"
>>> label("C/C(=N\\N=C(/S)N(C)C)c1cccnn1")
"yes"
>>> label("COC(=O)C1CCC[C@H]2C(CO)=C(C)C(=O)[C@@H]12 (stereo partly drawn)")
"no"
>>> label("COc1ccc(C(C)NNC(=O)c2cc[n+]([BH2-]C#N)cc2)c(OC)c1 (stereo not drawn)")
"no"
>>> label("CCN(CC)C1Oc2cc3c(cc2C(c2cc(OC)c(O)c(OC)c2)C1C)OCO3 (stereo not drawn)")
"no"
>>> label("Fc1cccc(C2SCc3nc4ccccc4n32)c1F (stereo not drawn)")
"no"
>>> label("C=CCOC1CC(n2cnc3c(N)ncnc32)OC1CO (stereo not drawn)")
"no"
>>> label("N#C/N=C(/N)NCO")
"no"
>>> label("C=C1CCCC2[C@](C)(CC3=C(Cl)C(=O)C=C(OC)C3=O)C(C)CC[C@]12C (stereo partly drawn)")
"no"
>>> label("CN(CC(=O)Nc1ccccc1C(=O)O)c1ccccc1")
"no"
>>> label("FC1(F)[Se]C2C3CCC(C3)C2C1(F)F (stereo not drawn)")
"no"
>>> label("COC(=O)/C(C#N)=C1\\NN=NN1CCCc1ccccc1")
"no"
>>> label("O=C(NCCCNCCN1C(=O)c2cccc3cc([N+](=O)[O-])cc(c23)C1=O)c1cc(-c2ccccc2)nc2ccccc12")
"no"
>>> label("COc1ccc2c(c1)[n+]([O-])c(C(=O)C/C(=N\\NC(=O)C[N+](C)(C)C)C(=O)Nc1cc(Cl)ccc1Cl)c(C)[n+]2[O-]")
"no"
>>> label("COC(=O)/C=C1/OC(c2ccccc2)=C(Br)C1=O")
"no"
>>> label("CO/N=C(\\C)CCC#Cc1ccccc1C(=O)OC")
"no"

###

tested on: PC-3; experiment: NCI tumour cell line growth inhibition, 48 h
The source made the active and inactive calls. No stated cut-off is given here; in the data, active = GI50 up to about 1.1 µM and inactive = higher.
// reported GI50 for each item listed
reported endpoint: GI50

>>> readout_value("CN(C)CCCN1c2ccc([N+](=O)[O-])cc2CCc2cc([N+](=O)[O-])ccc21")
"13.6 µM (inactive)"
>>> readout_value("O=C(NCCCNCCN1C(=O)c2cccc3cc([N+](=O)[O-])cc(c23)C1=O)c1cc(-c2ccccc2)nc2ccccc12")
"3.61 µM (inactive)"
>>> readout_value("CC(C)(C)NC(=O)CCC1C(C(=O)NC(C)(C)C)C2(Cl)C(Cl)=C(Cl)C1(Cl)C2(Cl)Cl (stereo not drawn)")
"> 100 µM (inactive)"

###

Recorded GI50 by entry
test system: T47D; experiment: NCI tumour cell line growth inhibition, 48 h
Active and inactive are the calls of the source. No stated cut-off is given here; in the data, active = GI50 up to about 1.1 µM and inactive = higher. Non-standard residues stand in square brackets, D forms with d. Residues, ends and D or L forms follow the SMILES beside them.
reported endpoint: GI50

>>> readout_value("C#C[C@]1(O)CC[C@H]2[C@@H]3CCC4=C/C(=N\\OCCN(CC)CC)CC[C@]4(C)[C@H]3CC[C@@]21C")
"6.3 µM (inactive)"
>>> readout_value("C/C(=N\\NS(=O)(=O)c1ccc(C)cc1)P(=O)(O)O")
"> 100 µM (inactive)"
>>> readout_value("CCCCCCCCCCCCC(O)C1CCC(C(O)CCCCCCC(O)CCCCCCCC2=CC(C)OC2=O)O1 (stereo unspecified)")
"2.8 µM (inactive)"
>>> readout_value("CSCC[C@H](NC(=O)[C@@H](N)CC(N)=O)C(=O)N[C@@H](Cc1c[nH]c2ccccc12)C(=O)N[C@@H](CCC(N)=O)C(=O)N[C@@H](CCC(=O)O)C(=O)N[C@H](C(=O)NCC(=O)N[C@@H](CCCCN)C(=O)N[C@H](C)C(=O)O)C(C)C (H-NMWQEVGK[dA]-OH)")
"> 100 µM (inactive)"
>>> readout_value("CCNC(=S)N/N=C1\\C(=O)Nc2ccc([N+](=O)[O-])cc21")
"31.6 µM (inactive)"
>>> readout_value("Nc1ccc(/C=C/c2ccc3cccnc3c2)cc1")
"92.9 µM (inactive)"
>>> readout_value("CCCCCCn1c(SC)nc(COC(=O)NC)c1COC(=O)NC")
"17.7 µM (inactive)"
>>> readout_value("CCOC(=O)c1ccc(C(=O)C(C(C)=O)C(=O)OC(C)(C)C)n1C (stereo unspecified)")
"> 100 µM (inactive)"
>>> readout_value("Cn1c(=O)c2c(nc3sc4c(n32)C(=O)c2c(O)ccc(O)c2C4=O)n(C)c1=O")
"2.43 µM (inactive)"
>>> readout_value("O=C(C[n+]1ccccc1)N/N=C(\\C(=O)NC1=C(Cl)C(=O)c2ccccc2C1=O)c1c(O)c2ccc(O)cc2oc1=O")
"5.56 µM (inactive)"
>>> readout_value("COC(=O)c1cc2/c(=N/O)c3ccccc3sc2o1")
"> 100 µM (inactive)"
>>> readout_value("CCN(CC)C(=S)SS(=O)(=O)c1ccc(NC(C)=O)cc1")
"24.9 µM (inactive)"
>>> readout_value("O=C1Oc2ccccc2C(=O)/C1=C/NC(=S)NCCc1ccccc1")
"35.1 µM (inactive)"
>>> readout_value("CCOC(=O)N1CCC(=C2c3ccc(Cl)cc3CCc3cccnc32)CC1")
"13.3 µM (inactive)"
>>> readout_value("COC(=O)CNC(=O)Nc1cc(N2C(=O)ON3C2C(C)(C)N(O)C3(C)C)ccc1C (stereo unspecified)")
"> 100 µM (inactive)"
>>> readout_value("[O-][S+](c1ccc(Cl)cc1)c1ccccc1C1=NCCN1 (stereo unspecified)")
"> 100 µM (inactive)"

###

tested on: SW-620; assay: NCI tumour cell line growth inhibition, 48 h
Activity calls are given as the source filed them. Rule as the data show it: active = GI50 up to about 1.1 µM and inactive = higher.
reported endpoint: GI50

>>> readout_value("C/C=C1\\C(=O)OC2CCN3CCC(COC(=O)C(C)(O)C(C)C1O)C23 (stereo not given)")
"> 100 µM (inactive)"
>>> readout_value("CCCCCCCCCCC/C(=N/O)c1ccc(O)c2ncccc12")
"3.86 µM (inactive)"
>>> readout_value("CCCN(CCC)C(=S)N/N=C/c1ccccn1")
"< 0.014 µM (active)"
>>> readout_value("CN(C)CCc1ccc(Cl)cc1Cl")
"> 100 µM (inactive)"
>>> readout_value("COC(=O)C(COC(C)=O)NC(=O)/C=C/c1ccc(O)c(OC(C)=O)c1 (stereo not given)")
"31 µM (inactive)"
